Origin of the recorded values: PubChem BioAssay (NCATS)

# Protocol Summary: Stat Signaling Pathway (AID 446);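 note: ME-180 cervical cancer cells given 40 pM IL-6 alongside compound; SIE-controlled beta-lactamase reporter measured as 460/530 nm FRET emission ratio; % is set by controls: 0 for no effect and ±100 for the full control effect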
# Experimental Conditions: ME-180 (cervical carcinoma) SIE beta-lactamase reporter, IL-6 stimulated, 5 h; at 17.2 µM (top of the series) unless noted
Results filed as inconclusive are left out.
Endpoint Label: activity, negative = inhibition (%)
Report as a plain number; the unit % is understood.

Before answering, review these 5 worked examples.
IN: Query: activity, negative = inhibition; subject: COC(=O)c1nn2c(C(F)(F)F)cc(-c3ccc(Br)o3)nc2c1Br
OUT: 0.255

IN: // returns reported activity, negative = inhibition for input CCOC(=O)CNS(=O)(=O)c1cc(-c2nn(C)c(=O)c3ccccc23)ccc1C
OUT: -5.95

IN: For the molecule c1ccc(-n2ncc3c(N4CCCC4)ncnc32)cc1 , what activity, negative = inhibition is on record?
OUT: -6.73

IN: Suppose we examine the molecule COc1cccc(OC)c1C(=O)Nc1nc2ccc(S(C)(=O)=O)cc2s1 ; what activity, negative = inhibition value has been reported?
OUT: -10.6

IN: Using the record for CCC(NC(=O)Nc1cc(OC)c(OC)c(OC)c1)(C(F)(F)F)C(F)(F)F , report its activity, negative = inhibition.
OUT: -1.91

// switching to the query molecule
IN: What activity, negative = inhibition value was documented for this molecule, COc1ccc(C=NCCCN2CCOCC2)cc1 ?
OUT: -3.86
